tested on: U-251; assay: Anticancer activity against human U251 cells after 48 hrs by sulforhodamine B assay; format: functional; details: Homo sapiens, U-251, 48 h
Recorded measurements of GI50, one per entry

>  <MOLECULAR_STRING>
CCCCCCCCCCCCCCCC[n+]1ccn(C)c1.[Cl-]

>  <ASSAYED_SYSTEM>
U-251

>  <GI50 (nM)>
334

$$$$
>  <MOLECULAR_STRING>
CCCCCCCCCCCCCCCCCC[n+]1ccn(C)c1.O=S(=O)([N-]S(=O)(=O)C(F)(F)F)C(F)(F)F

>  <ASSAYED_SYSTEM>
U-251

>  <GI50 (nM)>
397

$$$$
>  <MOLECULAR_STRING>
CCCCCCCCCCCCCCCCCC[n+]1ccn(C)c1.[Cl-]

>  <ASSAYED_SYSTEM>
U-251

>  <GI50 (nM)>
372

$$$$
>  <MOLECULAR_STRING>
CCCCCCCCCCCCCCCCCC[n+]1ccn(C)c1.FC(F)(F)C(F)(F)[P-](F)(F)(F)(C(F)(F)C(F)(F)F)C(F)(F)C(F)(F)F

>  <ASSAYED_SYSTEM>
U-251

>  <GI50 (nM)>
322

$$$$
>  <MOLECULAR_STRING>
CCCCCCCCCCCC[n+]1ccn(C)c1.[Cl-]

>  <ASSAYED_SYSTEM>
U-251

>  <GI50 (nM)>
2150

$$$$
